Measured On: Receptor-histidine kinase AgrC (Staphylococcus aureus, UniProt O07911)
Sequence (O07911 whole entry): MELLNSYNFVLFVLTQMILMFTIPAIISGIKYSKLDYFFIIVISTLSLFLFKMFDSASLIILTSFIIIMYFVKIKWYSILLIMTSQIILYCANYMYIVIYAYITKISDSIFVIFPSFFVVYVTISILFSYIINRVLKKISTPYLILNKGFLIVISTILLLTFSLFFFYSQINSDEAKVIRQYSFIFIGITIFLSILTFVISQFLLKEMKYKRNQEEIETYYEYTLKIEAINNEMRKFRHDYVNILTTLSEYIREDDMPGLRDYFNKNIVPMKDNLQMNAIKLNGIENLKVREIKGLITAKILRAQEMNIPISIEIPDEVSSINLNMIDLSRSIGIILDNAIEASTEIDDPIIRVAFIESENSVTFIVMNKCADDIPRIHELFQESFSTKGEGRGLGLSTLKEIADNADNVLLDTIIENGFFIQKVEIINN
Assay Name: Antagonistic concentration for accessory gene regulator C1 of Staphylococcus aureus
Format: functional
Measurement Kind: IC50 (nM)
Numbers only here, please. The scale is nM.

Query: IC50; subject: `H-INCDFLL-OH`
70

----------
Measured On: Receptor-histidine kinase AgrC (Staphylococcus aureus, UniProt O07911)
Assay Name: Concentration required to antagonise accessory gene regulator C4 of Staphylococcus aureus
Type: functional
Measurement Kind: IC50 (nM)
Numbers only here, please. The scale is nM.

Query: IC50; subject: `H-INCDFLL-OH`
150

----------
Measured On: Receptor-histidine kinase AgrC (Staphylococcus aureus, UniProt O07911)
Assay Name: Concentration required to antagonise accessory gene regulator C2 of Staphylococcus aureus
Type: functional
Measurement Kind: pIC50
// pIC50 is dimensionless: -log10 of concentration (M)

Query: pIC50; subject: `H-INCDFLL-OH`
8.22
